Species: Rattus norvegicus
Test: Open TG-GATES - Regimen: Single
Format: toxicity, organism-based, Sprague-Dawley
Set-up: regimen Single, gender Male, age 6 weeks
Settings: in vivo, po, 0 mg/kg, 6 h, tissue Blood, route gavage, dose level Control
Hi there, I'd appreciate the recorded Fbg for every entry that follows.
Answers are plain numbers, in mg/dL.

// below: answered compounds
What the record says about O=C(O)COc1nn(Cc2ccccc2)c2ccccc12 [BENDAZAC] : Fbg is 200.2

For CC(=O)Nc1ccc2c(c1)Cc1ccccc1-2 [2-ACETYLAMINOFLUORENE] the compound record lists Fbg as 225.4

compound CC[C@@H](CO)NCCN[C@@H](CC)CO [ETHAMBUTOL] , Fbg observed: 301.2

Fbg in this record for CC(C)Cc1ccc(C(C)C(=O)O)cc1 (configuration not stated) [IBUPROFEN] : 288.8

Data point: CC(CCc1ccccc1)NCC(O)c1ccc(O)c(C(N)=O)c1 (configuration not stated) [LABETALOL] ; Fbg = 327.6

Just so you know, measured Fbg for CC(=O)N1CCN(c2ccc(OCC3COC(Cn4ccnc4)(c4ccc(Cl)cc4Cl)O3)cc2)CC1 (configuration not stated) [KETOCONAZOLE] came out at 293.6

Pending compound:
Field Fbg (entry CCN(CC)N=O [N-NITROSODIETHYLAMINE] ) reads 218

* * *

Consider the following molecules; for each one, report its Neu.
Organism: Rattus norvegicus
Assay: Open TG-GATES - Regimen: Daily Repeat
Type: toxicity, organism-based, Sprague-Dawley
Parameters: regimen Daily Repeat, gender Male, age 6 weeks
Settings: in vivo, po, 0 mg/kg, 72 h, tissue Blood, route gavage, dose level Control, time 3 day
Give bare numbers, in %.

Before answering, review these 4 worked examples.
// Neu value for CC(=O)N1CCN(c2ccc(OCC3COC(Cn4ccnc4)(c4ccc(Cl)cc4Cl)O3)cc2)CC1 (configuration not stated) : 14.2

For record CC(=O)Nc1ccc2c(c1)Cc1ccccc1-2 the listed Neu is 12.6

Summary for this molecule, CCN(CC)N=O : Neu is 17.6

# Neu of CC(CCc1ccccc1)NCC(O)c1ccc(O)c(C(N)=O)c1 (configuration not stated) = 19.6

Batch lookup, Neu per entry.
1. CC[C@@H](CO)NCCN[C@@H](CC)CO
2. O=C(O)COc1nn(Cc2ccccc2)c2ccccc12
3. CC(N)=O [ACETAMIDE]

Output:
1. 13.8
2. 13.8
3. 23

* * *

Could you please report measured RALB for the items listed next?
Organism: Rattus norvegicus
Test: Open TG-GATES - Regimen: Single
Type: toxicity, organism-based, Sprague-Dawley
Set-up: regimen Single, gender Male, age 6 weeks
Conditions: in vivo, po, 0 mg/kg, 6 h, tissue Plasma, route gavage, dose level Control
Form entry: enter the amount, then its unit.

RALB measured on CC(=O)Nc1ccc2c(c1)Cc1ccccc1-2 = 3.4 g/dL

Each of the following entries comes with a recorded value; kindly state RALB for each.
1. O=C(O)COc1nn(Cc2ccccc2)c2ccccc12
2. CC(=O)N1CCN(c2ccc(OCC3COC(Cn4ccnc4)(c4ccc(Cl)cc4Cl)O3)cc2)CC1 (configuration not stated)
3. CC(C)Cc1ccc(C(C)C(=O)O)cc1 (configuration not stated)
4. CCN(CC)N=O
5. CC[C@@H](CO)NCCN[C@@H](CC)CO
6. CC(CCc1ccccc1)NCC(O)c1ccc(O)c(C(N)=O)c1 (configuration not stated)

Output:
["3.6 g/dL", "2.9 g/dL", "2.9 g/dL", "3.4 g/dL", "2.9 g/dL", "2.5 g/dL"]
